Cited source: ChEMBL document CHEMBL3751821

assay: Therapeutic index, ratio of TC50 for MDCK cells to IC50 for Influenza A virus H3N2 A3/JINGKE/30/95; format: cell-based; details: dog, read-out: TI
Friendly reminder: selectivity ratio below 8 is t, at or above is f.

Take a look at these entries with their results.
>  <Compound>
C[C@]1(CO)[C@H]2CC=C(Cn3cnc4ncnc(N)c43)[C@@H](CCC3=CCOC3=O)[C@]2(C)CC[C@H]1O

>  <Group label>
t

$$$$
>  <Compound>
C[C@]1(CO)[C@H]2CC=C(Cn3ccnc3)[C@@H](CCC3=CCOC3=O)[C@]2(C)CC[C@H]1O

>  <Group label>
t

$$$$
>  <Compound>
C=C1CC[C@@H]2[C@](C)(CO)[C@H](O)CC[C@@]2(C)[C@@H]1CC(C1=CCOC1=O)S(=O)(=O)[O-].[Na+] (stereo partly drawn)

>  <Group label>
f

$$$$

Please state whether selectivity ratio is below 8 for C[C@]1(CO)[C@H]2CC=C(CNC34CC5CC(CC(C5)C3)C4)[C@@H](CCC3=CCOC3=O)[C@]2(C)CC[C@H]1O f

Please state whether selectivity ratio is below 8 for NC(=O)c1ncn([C@@H]2O[C@H](CO)[C@@H](O)[C@H]2O)n1 f

Please state whether selectivity ratio is below 8 for C[C@]1(CO)[C@H]2CC=C(Cn3ccc(N)nc3=O)[C@@H](CCC3=CCOC3=O)[C@]2(C)CC[C@H]1O t

Please state whether selectivity ratio is below 8 for C[C@]1(CO)C2CC=C(CO)[C@@H](CCC3=CCOC3=O)[C@]2(C)CC[C@H]1O (single isomer, unassigned) t
